- ASSAYED_TARGET: T1, human recombinant HLA-B*08:01 and b2m (human)
- T1 construct: expressed in E. coli and purified; stability of the peptide-MHC complex read as b2m associated with the heavy chain over time at 37 C
- TEST_DESCRIPTION: pMHC dissociation assay at 37 C; mean half-life grade
QUANTITY_MEASURED: mean half-life (T1/2) of peptide-MHC complex

TSHERLTTL ... 4 to 6 h
HLLLKVLAF ... 4 to 6 h
MPNLRSVDL ... 4 to 6 h
EAMKRLSYI ... 2 to 4 h
MYKMKKPI ... 2 to 4 h

Query: Give me measured mean half-life (T1/2) of peptide-MHC complex, please, for this binder: "MLRKIAVAA"
Response: 2 to 4 h

Query: Look up and state reported mean half-life (T1/2) of peptide-MHC complex for "QGLLRPVF"
Response: 4 to 6 h

Query: Identify measured mean half-life (T1/2) of peptide-MHC complex associated with "LPKLAGLL"
Response: 2 to 4 h
